# assayed_target: GLP-1 receptor (UniProt P43220 24-463, limits assumed)
# assay_details: cell-based or functional assay
Non-standard residues stand in square brackets, D forms with d. No end group written: not given here. *: point of attachment. Palmitoyl = CCCCCCCCCCCCCCCC(=O)*; Myristoyl = CCCCCCCCCCCCCC(=O)*; DMIA = not defined here; Aib = CC(C)(N)C(=O)O
# % Activity of GLP-1 >= 70% gives fulfilled, anything below gives not fulfilled

Could you tell me if the measured % Activity of GLP-1 of HXQGTFTSDKSKYLDERRAKDFVQWLMNT (d-Ser at 2; Lys 10-C16 acyl; C-terminal amide) [dS2, E16/K20, K10(C16) Gluc Amide] reaches 70% or more?
not fulfilled

Could you tell me if the measured % Activity of GLP-1 of [DMIA]SQGTFTSDK(Myristoyl)SKYLDERRAKDFVQWLMNT-NH2 (reading uncertain) [DMIA1, K10(C14), [E16/K20]-Gluc Amide] reaches 70% or more?
not fulfilled

Could you tell me if the measured % Activity of GLP-1 of H[Aib]QGTFTSDK(Palmitoyl)SKYLD[Aib]RRAQDFVQWLMNT-NH2 [AIB2, AIB16, K10(C16) Gluc Amide (SEQ ID NO: 611)] reaches 70% or more?
fulfilled

Could you tell me if the measured % Activity of GLP-1 of XSQGTFTSDKSKYLDERRAKDFVQWLMNT (DMIA at 1; Lys 10-C18 acyl; [E16/K20]; C-terminal amide) [DMIA1, K10(C18), [E16/K20]-Gluc Amide] reaches 70% or more?
fulfilled

Could you tell me if the measured % Activity of GLP-1 of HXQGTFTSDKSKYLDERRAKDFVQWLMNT (d-Ser at 2; Lys 10-C18 acyl; C-terminal amide) [dS2, E16/K20, K10(C18) Gluc Amide] reaches 70% or more?
not fulfilled

Could you tell me if the measured % Activity of GLP-1 of XSQGTFTSDKSKYLDERRAKDFVQWLMNT (DMIA at 1; Lys 10-C16 acyl; [E16/K20]; C-terminal amide) [DMIA1, K10(C16), [E16/K20]-Gluc Amide] reaches 70% or more?
fulfilled

Could you tell me if the measured % Activity of GLP-1 of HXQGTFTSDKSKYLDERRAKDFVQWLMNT (d-Ser at 2; Lys 10-C14 acyl; C-terminal amide) [dS2, E16/K20, K10(C14) Gluc Amide] reaches 70% or more?
not fulfilled
